molecular target: CXCR3 I279A (Homo sapiens, UniProt P49682, I279A); construct: expressed in transfected cells; host or cells: murine pre-B cell line L1.2, transient transfection; experiment: Whole-cell 125I-CXCL11 binding assay, L1.2 transfectants; details: I279A, 0.1 nM 125I-CXCL11; read-out: IC50 ligand binding (mean ± SEM)
Sequence (P49682 whole entry I279A): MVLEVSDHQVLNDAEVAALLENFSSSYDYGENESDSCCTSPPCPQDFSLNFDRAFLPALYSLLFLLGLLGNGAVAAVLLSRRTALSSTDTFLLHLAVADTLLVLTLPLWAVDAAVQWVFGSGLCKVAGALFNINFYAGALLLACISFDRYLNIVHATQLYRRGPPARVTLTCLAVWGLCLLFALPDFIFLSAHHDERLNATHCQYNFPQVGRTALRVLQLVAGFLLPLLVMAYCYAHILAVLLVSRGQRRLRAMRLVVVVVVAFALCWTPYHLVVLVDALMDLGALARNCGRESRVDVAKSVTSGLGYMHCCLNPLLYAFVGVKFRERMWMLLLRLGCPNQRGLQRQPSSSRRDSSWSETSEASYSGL
measuredEndpoint: pIC50
Reminder that pIC50 is minus the log10 of a molar concentration.

Q. # lookup: pIC50 of "Cc1ccc(-c2ccc3c(c2)C=C(C(=O)Nc2ccc(C[N+](C)(C)C4CCOCC4)cc2)CCC3)cc1.[Cl-]"
A. 4.40
